Examples of binders with documented fold affinity vs original follow.
# SYSTEM: binding partner of C5A (XPA23)
# EXPERIMENT_DESCRIPTION: Biacore
Output spec: scalar in fold, unitless text.

Recorded results for 4 binders are shown here.
>>> quantitative_readout("C5A (XPA23) VH F35N (antibody, V domains shown) VH: EVQLLESGGGLVQPGGSLRLSCAASGFTFSKYFMNWVRQAPGKGLEWVSVISPSGGMTRYADSVKGRFTISRDNSKNTLYLQMNSLRAEDTAVYYCARVGYGGNSDYWGQGTLVTVSS VL: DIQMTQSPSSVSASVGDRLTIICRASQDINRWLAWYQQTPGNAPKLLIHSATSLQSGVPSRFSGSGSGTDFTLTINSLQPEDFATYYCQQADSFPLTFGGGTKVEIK")
0.86
>>> quantitative_readout("C5A (XPA23) VH G56D (antibody, V domains shown) VH: EVQLLESGGGLVQPGGSLRLSCAASGFTFSKYFMFWVRQAPGKGLEWVSVISPSGDMTRYADSVKGRFTISRDNSKNTLYLQMNSLRAEDTAVYYCARVGYGGNSDYWGQGTLVTVSS VL: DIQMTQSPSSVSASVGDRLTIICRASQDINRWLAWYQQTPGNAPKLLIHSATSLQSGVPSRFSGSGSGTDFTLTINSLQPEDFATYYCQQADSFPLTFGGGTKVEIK")
0.05
>>> quantitative_readout("C5A (XPA23) VH I51Y (antibody, V domains shown) VH: EVQLLESGGGLVQPGGSLRLSCAASGFTFSKYFMFWVRQAPGKGLEWVSVYSPSGGMTRYADSVKGRFTISRDNSKNTLYLQMNSLRAEDTAVYYCARVGYGGNSDYWGQGTLVTVSS VL: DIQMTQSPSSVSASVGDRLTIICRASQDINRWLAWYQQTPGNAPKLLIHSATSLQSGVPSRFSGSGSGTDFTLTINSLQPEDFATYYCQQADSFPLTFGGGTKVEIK")
1.75
>>> quantitative_readout("C5A (XPA23) VH Y107W (antibody, V domains shown) VH: EVQLLESGGGLVQPGGSLRLSCAASGFTFSKYFMFWVRQAPGKGLEWVSVISPSGGMTRYADSVKGRFTISRDNSKNTLYLQMNSLRAEDTAVYYCARVGYGGNSDWWGQGTLVTVSS VL: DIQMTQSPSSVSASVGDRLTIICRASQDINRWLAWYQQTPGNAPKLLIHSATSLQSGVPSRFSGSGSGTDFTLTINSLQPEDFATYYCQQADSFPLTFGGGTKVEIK")
0.89

Now take the following binder into account.
Q. Name the reported fold affinity vs original value associated with the binder C5A (XPA23) VH F35D (antibody, V domains shown) VH: EVQLLESGGGLVQPGGSLRLSCAASGFTFSKYFMDWVRQAPGKGLEWVSVISPSGGMTRYADSVKGRFTISRDNSKNTLYLQMNSLRAEDTAVYYCARVGYGGNSDYWGQGTLVTVSS VL: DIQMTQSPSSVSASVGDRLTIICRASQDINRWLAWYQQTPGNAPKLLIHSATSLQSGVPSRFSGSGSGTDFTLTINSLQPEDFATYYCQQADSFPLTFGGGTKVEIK
A. 0.06
